Values from the supplement of paper PMC10567573

B1: INTS3 (parent)
chain: YPPLEGHVRQGVFSSLNHIVEKRV

Variants of: B1
Experiment: protein stability index of a GFP-peptide fusion (GPS, HEK-293T) (PSI 1-6); higher = more stable;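 note: lentivirally expressed fusions sorted by FACS into six bins by GFP to DsRed ratio, PSI derived from sequencing read proportions per bin multiplied by bin number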
Conditions: c terminus: a fixed tail appended
Answer each item with its documented protein stability index.
Form: value (number only, do not type unit).

Request: Answer with the recorded protein stability index of `N17A` only.
Result: 2.48

Request: Answer with the recorded protein stability index of `H18V` only.
Result: 1.36

Request: Answer with the recorded protein stability index of `N17I` only.
Result: 1.86

Request: Answer with the recorded protein stability index of `P2H` only.
Result: 1.82

Request: Answer with the recorded protein stability index of `Q10L` only.
Result: 1.72

Request: Answer with the recorded protein stability index of `H7D` only.
Result: 2.79

Request: Answer with the recorded protein stability index of `G6V` only.
Result: 2.07

Request: Answer with the recorded protein stability index of `P2N` only.
Result: 1.82
